System: Fibroblast
assay.name: Multiplex assay against human fibroblast
Assay type: toxicity, cell-based
test.context: 24 h, 10 µM, compound concentration 10 uM, replicate 2
Rule: measured Total Cell Count below 80 gets T; anything equal to or greater than 80 gets F.

Here's an entry: Cl.Cn1c2c(c3ccc(Cl)c(Cl)c31)C(C#N)C1(CCNCC1)NC2=O (centres undefined) . Is its Total Cell Count below 80?
F

Here's an entry: C=CC(=O)Nc1cc(-n2c(=O)ccc3cnc4ccc(-c5ccc(NS(C)(=O)=O)cc5)cc4c32)ccc1C . Is its Total Cell Count below 80?
T

Here's an entry: Cc1c(P(=S)(c2ccccc2)c2ccccc2)n2ccccc2[n+]1C/C=C/c1ccccc1.[Br-] . Is its Total Cell Count below 80?
F

Here's an entry: Cc1ccc(S(=O)(=O)NC2c3ccccc3Oc3ccccc32)cc1 . Is its Total Cell Count below 80?
F

Here's an entry: Cc1ccc(NC(=O)Nc2cc(C(F)(F)F)ccc2F)cc1Nc1ccc2c(c1)NC(=O)/C2=C\c1ccc[nH]1 . Is its Total Cell Count below 80?
T

Here's an entry: CC[C@@]1(O)C(=O)OCc2c1cc1n(c2=O)Cc2cc3ccccc3nc2-1 [CAMPTOTHECIN] . Is its Total Cell Count below 80?
T

Here's an entry: c1ccc(-c2oc3ncnc(NC[C@@H]4CCCO4)c3c2-c2ccccc2)cc1 . Is its Total Cell Count below 80?
T

Here's an entry: N#CCNC(=O)c1ccc(-c2ccnc(Nc3ccc(N4CCOCC4)cc3)n2)cc1 [MOMELOTINIB] . Is its Total Cell Count below 80?
T

###

Tested on: HEK-293T
assay.name: Multiplex assay against HEK293T
Assay type: toxicity, cell-based
test.context: human, 12 h, 10 µM, compound concentration 10 uM, replicate 2
Assignment: determine reported Population Fragmented Nuclei (%) for the given compounds.
Answer in %, number only, no unit symbol.

# input compound: N#CCNC(=O)c1ccc(-c2ccnc(Nc3ccc(N4CCOCC4)cc3)n2)cc1 ; wanted: its Population Fragmented Nuclei (%)
9

# input compound: CCCCCNC(=N)N/N=C/c1c[nH]c2ccc(OC)cc12.O=C(O)/C=C\C(=O)O [TEGASEROD MALEATE] ; wanted: its Population Fragmented Nuclei (%)
15

# input compound: N#Cc1cccc(C(=O)Nc2cc(-c3ccccc3)nn2-c2ccccc2)c1 ; wanted: its Population Fragmented Nuclei (%)
5

# input compound: Cc1c(Nc2ccc(S(=O)(=O)N3CCN(C)CC3)cc2F)nc2ccc(Nc3cnn(C4CC4)c3)cn2c1=O ; wanted: its Population Fragmented Nuclei (%)
6

# input compound: Cl.Cn1c2c(c3ccc(Cl)c(Cl)c31)C(C#N)C1(CCNCC1)NC2=O (centres undefined) ; wanted: its Population Fragmented Nuclei (%)
3

# input compound: CC[C@H](Nc1ncnc2[nH]cnc12)c1nc2cccc(F)c2c(=O)n1-c1ccccc1 ; wanted: its Population Fragmented Nuclei (%)
8

# input compound: CC[C@@]1(O)C(=O)OCc2c1cc1n(c2=O)Cc2cc3ccccc3nc2-1 ; wanted: its Population Fragmented Nuclei (%)
3

# input compound: C=CC(=O)Nc1cc(-n2c(=O)ccc3cnc4ccc(-c5ccc(NS(C)(=O)=O)cc5)cc4c32)ccc1C ; wanted: its Population Fragmented Nuclei (%)
0

# input compound: Cc1ccc(S(=O)(=O)NC2c3ccccc3Oc3ccccc32)cc1 ; wanted: its Population Fragmented Nuclei (%)
33

###

Assignment: determine reported Population Membrane Permeable-Phenotype (%) for the given molecules.
Tested on: Fibroblast
assay.name: Multiplex assay against human fibroblast
Type: toxicity, cell-based
test.context: 12 h, 1 µM, compound concentration 1 uM, replicate 2
Answer in %, number only, no unit symbol.

Any idea what Population Membrane Permeable-Phenotype (%) came out for CN(c1cc(C(F)(F)F)nc(OCCC(=O)O)n1)c1cccc2c1CCC2 on Fibroblast?
4

Any idea what Population Membrane Permeable-Phenotype (%) came out for Cc1c(Nc2ccc(S(=O)(=O)N3CCN(C)CC3)cc2F)nc2ccc(-c3cnn(C4CC4)c3)cn2c1=O on Fibroblast?
0

Any idea what Population Membrane Permeable-Phenotype (%) came out for Cl.Cn1c2c(c3ccc(Cl)c(Cl)c31)C(C#N)C1(CCNCC1)NC2=O (centres undefined) on Fibroblast?
9

Any idea what Population Membrane Permeable-Phenotype (%) came out for N#Cc1cccc(C(=O)Nc2cc(-c3ccccc3)nn2-c2ccccc2)c1 on Fibroblast?
6

Any idea what Population Membrane Permeable-Phenotype (%) came out for N#CCNC(=O)c1ccc(-c2ccnc(Nc3ccc(N4CCOCC4)cc3)n2)cc1 [MOMELOTINIB] on Fibroblast?
2

Any idea what Population Membrane Permeable-Phenotype (%) came out for CN1C(=O)[C@@H](NC(=O)c2cc3ccccc3[nH]2)N=C(c2ccccc2)c2ccccc21 [DEVAZEPIDE] on Fibroblast?
9

Any idea what Population Membrane Permeable-Phenotype (%) came out for CC(Cc1ccc(O)c(O)c1)C(C)Cc1ccc(O)c(O)c1 (centres undefined) [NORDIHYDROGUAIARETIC ACID] on Fibroblast?
0

Any idea what Population Membrane Permeable-Phenotype (%) came out for CC(C)c1cc(Nc2nc(N3CCC[C@H](N)C3)ncc2C(N)=O)cc(C(C)C)n1 on Fibroblast?
16

Any idea what Population Membrane Permeable-Phenotype (%) came out for C=CC(=O)Nc1cc(-n2c(=O)ccc3cnc4ccc(-c5ccc(NS(C)(=O)=O)cc5)cc4c32)ccc1C on Fibroblast?
0

###

Assignment: determine reported Population Hoechst High Intensity Objects (%) for the given compounds.
System: HEK-293T
assay.name: Multiplex assay against HEK293T
Format: toxicity, cell-based
test.context: human, 24 h, 1 µM, compound concentration 1 uM, replicate 1
Answer in %, number only, no unit symbol.

# input compound: Cc1c(P(=S)(c2ccccc2)c2ccccc2)n2ccccc2[n+]1C/C=C/c1ccccc1.[Br-] ; wanted: its Population Hoechst High Intensity Objects (%)
19

# input compound: CCCCCNC(=N)N/N=C/c1c[nH]c2ccc(OC)cc12.O=C(O)/C=C\C(=O)O [TEGASEROD MALEATE] ; wanted: its Population Hoechst High Intensity Objects (%)
13

# input compound: Cc1ccc(NC(=O)Nc2cc(C(F)(F)F)ccc2F)cc1Nc1ccc2c(c1)NC(=O)/C2=C\c1ccc[nH]1 ; wanted: its Population Hoechst High Intensity Objects (%)
14

# input compound: Cl.Cn1c2c(c3ccc(Cl)c(Cl)c31)C(C#N)C1(CCNCC1)NC2=O (configuration not stated) ; wanted: its Population Hoechst High Intensity Objects (%)
7

# input compound: CCCc1cc(C)[nH]c(=O)c1CNC(=O)c1cc(-c2ccc(N3CCN(C(C)C)CC3)nc2)cc2c1cnn2C(C)C ; wanted: its Population Hoechst High Intensity Objects (%)
17

# input compound: CC(Cc1ccc(O)c(O)c1)C(C)Cc1ccc(O)c(O)c1 (configuration not stated) [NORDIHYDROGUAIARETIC ACID] ; wanted: its Population Hoechst High Intensity Objects (%)
12

# input compound: CN1C(=O)[C@@H](NC(=O)c2cc3ccccc3[nH]2)N=C(c2ccccc2)c2ccccc21 [DEVAZEPIDE] ; wanted: its Population Hoechst High Intensity Objects (%)
13

# input compound: CC(/C=C1\SC(=S)N(CCCC(=O)Nc2ccc(C(=O)O)c(O)c2)C1=O)=C\c1ccccc1 ; wanted: its Population Hoechst High Intensity Objects (%)
13

# input compound: Cc1c(Nc2ccc(S(=O)(=O)N3CCN(C)CC3)cc2F)nc2ccc(Nc3cnn(C4CC4)c3)cn2c1=O ; wanted: its Population Hoechst High Intensity Objects (%)
11

# input compound: C=CC(=O)Nc1cc(-n2c(=O)ccc3cnc4ccc(-c5ccc(NS(C)(=O)=O)cc5)cc4c32)ccc1C ; wanted: its Population Hoechst High Intensity Objects (%)
19

# input compound: Cc1ccc(S(=O)(=O)NC2c3ccccc3Oc3ccccc32)cc1 ; wanted: its Population Hoechst High Intensity Objects (%)
13

# input compound: C[C@@H](Oc1cc(-n2cnc3ccc(CN4CCN(C)CC4)cc32)sc1C(N)=O)c1ccccc1C(F)(F)F [GSK-461364] ; wanted: its Population Hoechst High Intensity Objects (%)
16

# input compound: CC(C)c1cc(Nc2nc(N3CCC[C@H](N)C3)ncc2C(N)=O)cc(C(C)C)n1 ; wanted: its Population Hoechst High Intensity Objects (%)
14

# input compound: CCOC(=O)CCNc1cc(N2CCc3ccccc3CC2)nc(-c2ccccn2)n1 ; wanted: its Population Hoechst High Intensity Objects (%)
4

# input compound: Cc1c(Nc2ccc(S(=O)(=O)N3CCN(C)CC3)cc2F)nc2ccc(-c3cnn(C4CC4)c3)cn2c1=O ; wanted: its Population Hoechst High Intensity Objects (%)
5

# input compound: CC[C@H](Nc1ncnc2[nH]cnc12)c1nc2cccc(F)c2c(=O)n1-c1ccccc1 [IDELALISIB] ; wanted: its Population Hoechst High Intensity Objects (%)
10

# input compound: CCCCN(CC)c1nc(C)nc2c1c(C)cn2-c1c(C)cc(C)cc1C.Cl ; wanted: its Population Hoechst High Intensity Objects (%)
13
